tested-target: Human membrane-bound BAFF (mbBAFF) (human, UniProt Q9Y275 1-285)
assay-procedure: cell-based or functional assay
readout-type: Potent mbBAFF Neutralization IC50 (nM)
Return type: number; implicit unit nM.

Just so you know, measured Potent mbBAFF Neutralization IC50 for Reference 2 (antibody, human IgG1, lambda, V domains shown, Comparator anti-BAFF antibody) VH: QVQLQQSGAEVKKPGSSVRVSCKASGGTFNNNAINWVRQAPGQGLEWMGGIIPMFGTAKYSQNFQGRVAITADESTGTASMELSSLRSEDTAVYYCARSRDLLLFPHHALSPWGRGTMVTVSS VL: SSELTQDPAVSVALGQTVRVTCQGDSLRSYYASWYQQKPGQAPVLVIYGKNNRPSGIPDRFSGSSSGNTASLTITGAQAEDEADYYCSSRDSSGNHWVFGGGTELTVLG came out at 2.18

The binder listed as 1094C4E6 (antibody, V domains shown) VH: EVQLQQSGAELVRPGASVKLSCTASGFNIKDDYMHWVKQTPEQGLEWIGRIDPAYGNGKYVPKFQDKATITADTSSNTAYLQLSSLTSEDTAVYYCARRYYAVSSVDYALDYWGQGTSVTVSS VL: DIVMTQSHKFMSTSVGDRVTITCKASQDVATAVAWYQQKPGQSPKLLIYWASTRHTGVPDRFTGSGSGTDFTLTISNVQSEDLANYFCQQYSNYPYTFGGGTTLEIK has a reported Potent mbBAFF Neutralization IC50 of 2.56

// 1002E8A6 (antibody, V domains shown) VH: EVQLQQSGPELVKPGASVKMSCKASGYTITSYVMHWVKQKPGQGLEWIGYINPNNDGTKYNEKFKGKATLTSDKSSNTAYMELSSLTSEDSAVYYCARGDYSNYFYWYFDVWGAGTTVTVSS VL: DIKMTQSPSSMYASLGERVTITCKASQDINSYLTWFQQKPGKSPETLIYRANRLVSGVPSRFSGSGSGQDYSLTISSLEYEDMGIYSCLQYDEFPYTFGGGTKLEIK : Potent mbBAFF Neutralization IC50 value = 0.141

Measured Potent mbBAFF Neutralization IC50 of Reference 1 (antibody, human IgG4 S228P, kappa, V domains shown, Comparator anti-BAFF antibody) VH: QVQLQQWGAGLLKPSETLSLTCAVYGGSFSGYYWSWIRQPPGKGLEWIGEINHSGSTNYNPSLKSRVTISVDTSKNQFSLKLSSVTAADTAVYYCARGYYDILTGYYYYFDYWGQGTLVTVSS VL: EIVLTQSPATLSLSPGERATLSCRASQSVSRYLAWYQQKPGQAPRLLIYDASNRATGIPARFSGSGSGTDSTLTISSLEPEDFAVYYCQQRSNWPRTFGQGTKVEIKR : 0.177
